Values from patent US8815882B2

target: LRRK2 (Homo sapiens, UniProt Q5S007, G2019S); construct: purchased Invitrogen PV4882 (lot 567054A); experiment: In Vitro LRRK2 Assay (LabChip 3000, fluorescently-labeled peptide substrate, ATP); type: biochemical; conditions: Table 9; LRRK2 Ki (micromolar); read-out: LRRK2 Ki (KI)
Sequence (Q5S007 whole entry G2019S): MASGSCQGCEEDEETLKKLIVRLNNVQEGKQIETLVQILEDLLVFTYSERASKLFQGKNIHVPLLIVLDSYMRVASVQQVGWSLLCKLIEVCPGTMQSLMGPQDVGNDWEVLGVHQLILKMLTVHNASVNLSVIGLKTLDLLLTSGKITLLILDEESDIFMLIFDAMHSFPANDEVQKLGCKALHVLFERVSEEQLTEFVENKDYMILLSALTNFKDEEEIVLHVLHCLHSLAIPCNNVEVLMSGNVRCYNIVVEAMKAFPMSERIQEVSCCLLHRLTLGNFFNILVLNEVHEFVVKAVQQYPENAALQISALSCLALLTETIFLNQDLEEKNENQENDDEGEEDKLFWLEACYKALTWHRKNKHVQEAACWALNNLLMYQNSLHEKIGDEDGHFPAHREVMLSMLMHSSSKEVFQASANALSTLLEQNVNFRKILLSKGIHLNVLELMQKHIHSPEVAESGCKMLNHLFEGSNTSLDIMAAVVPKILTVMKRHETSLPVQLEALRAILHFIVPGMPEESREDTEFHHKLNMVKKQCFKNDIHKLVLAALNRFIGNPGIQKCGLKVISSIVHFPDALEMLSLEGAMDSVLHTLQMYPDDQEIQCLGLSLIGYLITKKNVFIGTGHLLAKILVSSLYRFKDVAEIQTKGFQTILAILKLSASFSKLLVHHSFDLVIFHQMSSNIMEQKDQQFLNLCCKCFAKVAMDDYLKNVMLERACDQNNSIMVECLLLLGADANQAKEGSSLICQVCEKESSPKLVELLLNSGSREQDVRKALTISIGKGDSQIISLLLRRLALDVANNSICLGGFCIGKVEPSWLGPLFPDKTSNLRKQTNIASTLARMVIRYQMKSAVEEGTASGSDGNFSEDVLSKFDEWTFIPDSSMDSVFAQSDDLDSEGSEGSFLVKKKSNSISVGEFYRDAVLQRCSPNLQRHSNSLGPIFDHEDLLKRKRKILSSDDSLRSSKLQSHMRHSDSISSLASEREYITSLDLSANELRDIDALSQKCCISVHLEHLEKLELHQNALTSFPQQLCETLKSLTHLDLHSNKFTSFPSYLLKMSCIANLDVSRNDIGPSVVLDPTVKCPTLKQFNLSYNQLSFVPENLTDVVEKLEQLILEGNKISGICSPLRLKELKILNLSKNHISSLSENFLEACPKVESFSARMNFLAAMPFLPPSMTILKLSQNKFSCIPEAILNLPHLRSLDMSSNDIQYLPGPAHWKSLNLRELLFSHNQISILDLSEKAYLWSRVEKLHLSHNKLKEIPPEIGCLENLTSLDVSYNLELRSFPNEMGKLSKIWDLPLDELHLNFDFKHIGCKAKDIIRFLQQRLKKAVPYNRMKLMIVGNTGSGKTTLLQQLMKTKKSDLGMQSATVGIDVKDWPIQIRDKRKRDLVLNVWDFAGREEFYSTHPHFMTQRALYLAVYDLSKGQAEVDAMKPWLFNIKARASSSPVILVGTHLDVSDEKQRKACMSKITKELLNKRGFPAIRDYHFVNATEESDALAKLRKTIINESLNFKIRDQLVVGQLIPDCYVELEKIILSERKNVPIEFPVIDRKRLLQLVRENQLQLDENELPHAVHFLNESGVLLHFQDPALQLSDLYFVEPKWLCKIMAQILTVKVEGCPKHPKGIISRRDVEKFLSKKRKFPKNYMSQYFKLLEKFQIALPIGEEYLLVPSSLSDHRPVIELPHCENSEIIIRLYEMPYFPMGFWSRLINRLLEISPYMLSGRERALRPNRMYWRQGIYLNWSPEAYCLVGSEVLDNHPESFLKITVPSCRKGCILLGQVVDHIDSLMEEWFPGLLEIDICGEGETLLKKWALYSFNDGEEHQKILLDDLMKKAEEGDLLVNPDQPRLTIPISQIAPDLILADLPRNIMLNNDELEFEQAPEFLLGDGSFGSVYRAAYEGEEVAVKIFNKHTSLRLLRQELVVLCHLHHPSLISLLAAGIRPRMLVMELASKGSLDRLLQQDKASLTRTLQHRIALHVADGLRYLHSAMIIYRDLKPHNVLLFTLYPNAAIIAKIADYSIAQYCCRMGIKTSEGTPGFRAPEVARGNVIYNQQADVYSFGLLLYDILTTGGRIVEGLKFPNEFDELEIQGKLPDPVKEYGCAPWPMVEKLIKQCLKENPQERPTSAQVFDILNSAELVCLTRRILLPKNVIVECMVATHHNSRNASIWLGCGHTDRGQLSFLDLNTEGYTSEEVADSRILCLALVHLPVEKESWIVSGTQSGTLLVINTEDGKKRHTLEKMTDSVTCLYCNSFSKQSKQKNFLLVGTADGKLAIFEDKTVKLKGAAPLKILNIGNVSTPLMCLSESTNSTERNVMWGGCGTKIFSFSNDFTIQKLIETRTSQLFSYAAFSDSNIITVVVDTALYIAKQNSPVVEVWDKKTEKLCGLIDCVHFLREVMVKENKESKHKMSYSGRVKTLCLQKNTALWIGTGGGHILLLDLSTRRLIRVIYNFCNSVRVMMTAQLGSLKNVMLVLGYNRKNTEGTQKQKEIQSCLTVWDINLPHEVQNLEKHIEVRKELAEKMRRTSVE
# Lookup of reported Ki keyed by entry

compound structure string | unit | Ki
CCCn1ncc(Nc2ncc(C#N)c(NC)n2)c1C | nM | 5.4
Cc1c(Nc2ncc(C#N)c(OCC(F)F)n2)cnn1C | nM | 211
CNc1nc(Nc2cnn(C3COC3)c2C)ncc1C#N | nM | 32.2
CNc1nc(Nc2cn(CC3CC3)nc2C)ncc1C#N | nM | 45
Cc1c(Nc2ncc(C#N)c(NCC(F)(F)F)n2)cnn1C | nM | 27.5

---

biological target: LRRK2 (Homo sapiens, UniProt Q5S007, G2019S); construct: purchased Invitrogen PV4882 (lot 567054A); test: In Vitro LRRK2 Assay (LabChip 3000, fluorescently-labeled peptide substrate, ATP); assay type: biochemical; details: read-out: LRRK2 Ki given in the example
# Ki values compiled below

compound structure string | experimental system | Ki
CNc1nc(Nc2cc(C(=O)N3CCOCC3)nn2C)ncc1Cl | LRRK2 (Homo sapiens, UniProt Q5S007, G2019S) | 160 nM
CNc1nc(Nc2cnn(C)c2C)ncc1C#N | LRRK2 (Homo sapiens, UniProt Q5S007, G2019S) | 25 nM
CNc1nc(Nc2cn(C(C)(C)C#N)nc2C)ncc1C(F)(F)F | LRRK2 (Homo sapiens, UniProt Q5S007, G2019S) | 0.5 nM
CNc1nc(Nc2cnn(C)c2C)ncc1Br | LRRK2 (Homo sapiens, UniProt Q5S007, G2019S) | 17 nM

---

Catalogue of pKi readings, one per entry.
target: LRRK2 (Homo sapiens, UniProt Q5S007, G2019S); construct: purchased Invitrogen PV4882 (lot 567054A); experiment: In Vitro LRRK2 Assay (LabChip 3000, fluorescently-labeled peptide substrate, ATP); assay type: biochemical; conditions: read-out: LRRK2 Ki (KI), Table 8
pKi: −log10 of the molar value.

molecule | pKi
CCNc1nc(Nc2cn(C3CCC(=O)N(C)C3)nc2C)ncc1C(F)(F)F (centres unmarked) [Example 152] | 8.14
CNc1nc(Nc2cnn(CC3CC3)c2C)ncc1C(F)(F)F [Example 165] | 8.92
CCNc1nc(Nc2cn(C(C)(C)C(=O)NC)nc2C)ncc1C(F)(F)F [Example 303] | 8.89
Cc1c(Nc2ncc(C(F)(F)F)c(NC3CC3)n2)cnn1S(C)(=O)=O [Example 301] | 8.68
CNc1nc(Nc2cnn(C3CCS(=O)(=O)CC3)c2C)ncc1C(F)(F)F [Example 196] | 7.33

---

biological target: LRRK2 (Homo sapiens, UniProt Q5S007, G2019S); construct: purchased Invitrogen PV4882 (lot 567054A); assay: In Vitro LRRK2 Assay (LabChip 3000, fluorescently-labeled peptide substrate, ATP); format: biochemical; settings: read-out: LRRK2 Ki (KI), Table 8
Quick reference for Ki among some molecules

molecule | experimental system | unit | Ki
CCNc1nc(Nc2cn(C3CCN(C(C)=O)CC3)nc2C)ncc1C(F)(F)F | LRRK2 (Homo sapiens, UniProt Q5S007, G2019S) | nM | 2.2
CCNc1nc(Nc2cn(-c3ccc(C#N)cc3)nc2C)ncc1C(F)(F)F | LRRK2 (Homo sapiens, UniProt Q5S007, G2019S) | nM | 4.8
CCNc1nc(Nc2cnn(C3CCN(CC4OCCO4)C3)c2C)ncc1C(F)(F)F (stereo not drawn) | LRRK2 (Homo sapiens, UniProt Q5S007, G2019S) | nM | 0.4
CCNc1nc(Nc2cn(CC(C)(C)O)nc2C)ncc1C(F)(F)F | LRRK2 (Homo sapiens, UniProt Q5S007, G2019S) | nM | 2.1
CNc1nc(Nc2cn(C3CCN(C4COC4)CC3F)nc2C)ncc1C(F)(F)F (stereo not drawn) | LRRK2 (Homo sapiens, UniProt Q5S007, G2019S) | nM | 2.2
CNc1nc(Nc2cnn(C)c2C2CC2)ncc1C(F)(F)F | LRRK2 (Homo sapiens, UniProt Q5S007, G2019S) | nM | 12
CNc1nc(Nc2cn(S(=O)(=O)C(C)C)nc2C)ncc1C(F)(F)F | LRRK2 (Homo sapiens, UniProt Q5S007, G2019S) | nM | 9.9
CCCn1ncc(Nc2ncc(C(F)(F)F)c(NC)n2)c1C | LRRK2 (Homo sapiens, UniProt Q5S007, G2019S) | nM | 5.6
CCNc1nc(Nc2cn(C3CCC(=O)NC3)nc2C)ncc1C(F)(F)F (stereo not drawn) | LRRK2 (Homo sapiens, UniProt Q5S007, G2019S) | nM | 1.3

---

Reported pKi values are given for each entry in this list.
target: LRRK2 (Homo sapiens, UniProt Q5S007, G2019S); construct: purchased Invitrogen PV4882 (lot 567054A); assay: In Vitro LRRK2 Assay (LabChip 3000, fluorescently-labeled peptide substrate, ATP); assay type: biochemical; settings: Table 10; LRRK2 Ki (micromolar); read-out: LRRK2 Ki (KI)
pKi: −log10 of the molar value.
quantity kind: pKi

compound | quantity kind | result value
CNC(=O)Cn1ncc(Nc2ncc(C(F)(F)F)c(NC)n2)c1C [Example 398] | pKi | 8.52
CCNc1nc(Nc2cnn(C(C)(C)C(=O)NC)c2C)ncc1C(F)(F)F [Example 448] | pKi | 7.82
CNc1nc(Nc2cn([C@H](C)C#N)nc2C)ncc1C(F)(F)F [Example 437] | pKi | 8.19
CNc1nc(Nc2cn(C(C)(C)C#N)nc2C2CC2)ncc1C(F)(F)F [Example 419] | pKi | 9.00
COc1nc(Nc2cn(C(C)(C)C#N)nc2C2CC2)ncc1Cl [Example 438] | pKi | 8.24
CNc1nc(Nc2cnn(C(C)(C)C(=O)NC(C)(C)C)c2C)ncc1C(F)(F)F [Example 447] | pKi | 7.17
CCNc1nc(Nc2cn(C(C)(C)C#N)nc2C)ncc1C(F)(F)F [Example 451] | pKi | 9.52
CNc1nc(Nc2cn(C(C)(C)C(=O)NCC3CC3)nc2C)ncc1C(F)(F)F [Example 427] | pKi | 7.28
CNC(=O)Cn1cc(Nc2ncc(C(F)(F)F)c(NC)n2)c(C)n1 [Example 397] | pKi | 8.02

---

biological target: LRRK2 (Homo sapiens, UniProt Q5S007, G2019S); construct: purchased Invitrogen PV4882 (lot 567054A); assay: In Vitro LRRK2 Assay (LabChip 3000, fluorescently-labeled peptide substrate, ATP); type: biochemical; settings: read-out: LRRK2 Ki (KI), Table 8
pKi: −log10 of the molar value.
Consider the following compounds and their measured pKi readings.
quantity kind: pKi

compound | quantity kind | result value
CNc1nc(Nc2cnn(C3CCOCC3)c2Cl)ncc1C(F)(F)F | pKi | 9.15
CNc1nc(Nc2cn(C)nc2C(C)C)ncc1C(F)(F)F | pKi | 7.16
CNc1nc(Nc2cn(C(C)(C)CN3CCOCC3)nc2C)ncc1C(F)(F)F | pKi | 7.64
CNc1nc(Nc2cnn(Cc3ccncn3)c2C)ncc1C(F)(F)F | pKi | 8.66
CNc1nc(Nc2cn(C3CCCOC3)nc2C)ncc1C(F)(F)F (stereo not drawn) | pKi | 8.02
CNc1nc(Nc2cn(CC3CC3)nc2C)ncc1C(F)(F)F | pKi | 8.35
CCNc1nc(Nc2cnn(CC(C)(C)O)c2Cl)ncc1C(F)(F)F | pKi | 8.51
CNc1nc(Nc2cn(C3CCN(C4COC4)CC3)nc2C)ncc1C(F)(F)F | pKi | 7.43
CCNc1nc(Nc2cnn(C)c2C)ncc1Br | pKi | 8.82
CNc1nc(Nc2cnn(C3CC3)c2Cl)ncc1C(F)(F)F | pKi | 8.77
CCn1cc(Nc2ncc(Br)c(NC)n2)c(C)n1 | pKi | 8.66
CCNc1nc(Nc2cn(C(C)(C)c3nncn3C)nc2C)ncc1C(F)(F)F | pKi | 8.12

---

target: LRRK2 (Homo sapiens, UniProt Q5S007, G2019S); construct: purchased Invitrogen PV4882 (lot 567054A); test: In Vitro LRRK2 Assay (LabChip 3000, fluorescently-labeled peptide substrate, ATP); type: biochemical; settings: Table 9; LRRK2 Ki (micromolar); read-out: LRRK2 Ki (KI)
Listing of recorded Ki by entry.
quantity kind: Ki (µM)

compound | experimental system | result value
CCNc1nc(Nc2cnn(CC)c2C)ncc1C#N [Example 363] | LRRK2 (Homo sapiens, UniProt Q5S007, G2019S) | 0.006
CNc1nc(Nc2cnn(C3CCOCC3)c2Cl)ncc1C#N [Example 383] | LRRK2 (Homo sapiens, UniProt Q5S007, G2019S) | 0.0096
CCNc1nc(Nc2cnn(C3CCOCC3)c2C)ncc1C#N [Example 371] | LRRK2 (Homo sapiens, UniProt Q5S007, G2019S) | 0.0052
CNc1nc(Nc2cn(C3CCC(F)(F)CC3)nc2C)ncc1C#N [Example 392] | LRRK2 (Homo sapiens, UniProt Q5S007, G2019S) | 0.266
CNc1nc(Nc2cn(C(F)F)nc2C)ncc1C#N [Example 365] | LRRK2 (Homo sapiens, UniProt Q5S007, G2019S) | 0.035
CNc1nc(Nc2cnn(C(C)C)c2C)ncc1C#N [Example 374] | LRRK2 (Homo sapiens, UniProt Q5S007, G2019S) | 0.0158
CCn1ncc(Nc2ncc(C#N)c(NC)n2)c1C [Example 351] | LRRK2 (Homo sapiens, UniProt Q5S007, G2019S) | 0.0097
COc1nc(Nc2cnn(C)c2C)ncc1C#N [Example 375] | LRRK2 (Homo sapiens, UniProt Q5S007, G2019S) | 0.145
CNc1nc(Nc2cn(CC(F)(F)F)nc2C)ncc1C#N [Example 359] | LRRK2 (Homo sapiens, UniProt Q5S007, G2019S) | 0.053
CNc1nc(Nc2cnn(-c3ccc(F)cc3)c2C)ncc1C#N [Example 386] | LRRK2 (Homo sapiens, UniProt Q5S007, G2019S) | 0.0959
CNc1nc(Nc2cn(C3CCOCC3)nc2C)ncc1C#N [Example 362] | LRRK2 (Homo sapiens, UniProt Q5S007, G2019S) | 0.086
CNc1nc(Nc2cn(C)nc2C)ncc1C#N [Example 350] | LRRK2 (Homo sapiens, UniProt Q5S007, G2019S) | 0.029
CNc1nc(Nc2cn(-c3ccccc3)nc2C)ncc1C#N [Example 354] | LRRK2 (Homo sapiens, UniProt Q5S007, G2019S) | 0.12
CNc1nc(Nc2cn(C(C)C)nc2C)ncc1C#N [Example 352] | LRRK2 (Homo sapiens, UniProt Q5S007, G2019S) | 0.048
CCn1cc(Nc2ncc(C#N)c(NC)n2)c(C)n1 [Example 353] | LRRK2 (Homo sapiens, UniProt Q5S007, G2019S) | 0.036
CCn1ncc(Nc2ncc(C#N)c(OC)n2)c1C [Example 377] | LRRK2 (Homo sapiens, UniProt Q5S007, G2019S) | 0.075
CCNc1nc(Nc2cn(C3CCOCC3)nc2C)ncc1C#N [Example 372] | LRRK2 (Homo sapiens, UniProt Q5S007, G2019S) | 0.024
CNc1nc(Nc2cnn(-c3ccc(Cl)cc3)c2C)ncc1C#N [Example 369] | LRRK2 (Homo sapiens, UniProt Q5S007, G2019S) | 0.0025
CNc1nc(Nc2cnn(-c3ccccc3)c2C)ncc1C#N [Example 360] | LRRK2 (Homo sapiens, UniProt Q5S007, G2019S) | 0.0013
